test system: MOLM-14 cells; assay: WST-1 cell proliferation assay, MOLM-14; type: cell-based, human; settings: Homo sapiens, MOLM-14, Table 7; cell proliferation; read-out: IC50 (μM) MOLM-14
PARAMETER_MEASURED: IC50 (µM)
The figure you give is taken to be in µM; do not add the unit.

Solved cases below.
[[record]]
compound = "COCCN(C)C1=C(C2=C(N(C)CCOC)C(=O)c3ccccc3C2=O)C(=O)c2ccccc2C1=O [Compound 108]"
target_entity = "MOLM-14 cells"
value = 6.1

[[record]]
compound = "O=C1C(Cl)=C(C2=C(Cl)C(=O)c3cc(Br)ccc3C2=O)C(=O)c2ccccc21 [Compound 139]"
target_entity = "MOLM-14 cells"
value = 7.1

[[record]]
compound = "O=C1C(Cl)=C(C2=C(NCCO)C(=O)c3ccccc3C2=O)C(=O)c2ccccc21 [Compound 125]"
target_entity = "MOLM-14 cells"
value = 2.2


Reported IC50 for CN(C)CCN(C)C1=C(C2=C(Cl)C(=O)c3ccccc3C2=O)C(=O)c2ccccc2C1=O [Compound 124] was 2.8

Lookup result for CN(CCO)C1=C(C2=C(N(C)CCO)C(=O)c3ccccc3C2=O)C(=O)c2ccccc2C1=O [Compound 107] ; measured IC50: 6.3
